molecular target: Phosphatidylinositol 4,5-bisphosphate 3-kinase catalytic subunit gamma isoform (Homo sapiens); assay: Biological Assay: The assay combines the scintillation proximity assay technology (SPA, Amersham) with the capacity of neomycin (a polycationic antibiotic) to bind phospholipids with high affinity and specificity. The Scintillation Proximity Assay is based on the properties of weakly emitting isotopes (such as 3H, 125I, 33P). Coating SPA beads with neomycin allows the detection of phosphorylated lipid substrates after incubation with recombinant PI3K and radioactive ATP in the same well, by capturing the radioactive phospholipids to the SPA beads through their specific binding to neomycin.
Sequence (P48736 whole entry, canonical isoform): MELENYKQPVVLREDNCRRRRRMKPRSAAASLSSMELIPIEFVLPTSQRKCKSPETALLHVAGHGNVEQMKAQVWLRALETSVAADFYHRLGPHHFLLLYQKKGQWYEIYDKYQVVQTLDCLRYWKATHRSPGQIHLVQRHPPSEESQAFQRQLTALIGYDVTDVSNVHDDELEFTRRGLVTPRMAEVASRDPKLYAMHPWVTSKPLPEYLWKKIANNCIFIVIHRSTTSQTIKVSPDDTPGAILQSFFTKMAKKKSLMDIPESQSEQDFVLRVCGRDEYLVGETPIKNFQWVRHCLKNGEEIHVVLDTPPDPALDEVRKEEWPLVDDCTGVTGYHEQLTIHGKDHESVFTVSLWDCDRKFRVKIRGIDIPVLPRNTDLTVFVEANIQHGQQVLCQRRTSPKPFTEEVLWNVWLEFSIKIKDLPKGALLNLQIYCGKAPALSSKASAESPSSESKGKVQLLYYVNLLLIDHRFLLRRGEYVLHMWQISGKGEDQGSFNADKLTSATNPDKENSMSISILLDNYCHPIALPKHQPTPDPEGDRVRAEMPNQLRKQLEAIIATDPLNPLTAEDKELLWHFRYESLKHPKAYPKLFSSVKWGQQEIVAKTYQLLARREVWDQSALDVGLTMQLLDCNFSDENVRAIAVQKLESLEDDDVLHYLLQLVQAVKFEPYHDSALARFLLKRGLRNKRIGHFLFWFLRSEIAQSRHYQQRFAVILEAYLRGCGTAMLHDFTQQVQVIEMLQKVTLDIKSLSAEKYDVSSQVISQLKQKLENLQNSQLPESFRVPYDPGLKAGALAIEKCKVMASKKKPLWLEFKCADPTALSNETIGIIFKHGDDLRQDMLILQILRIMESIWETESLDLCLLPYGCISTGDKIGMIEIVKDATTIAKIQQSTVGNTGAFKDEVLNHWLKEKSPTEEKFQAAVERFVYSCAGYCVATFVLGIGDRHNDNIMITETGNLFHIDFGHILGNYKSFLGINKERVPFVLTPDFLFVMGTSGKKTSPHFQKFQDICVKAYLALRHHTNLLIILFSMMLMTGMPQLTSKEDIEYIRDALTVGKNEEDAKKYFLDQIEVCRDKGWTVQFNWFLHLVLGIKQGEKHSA
Readout type: IC50 (nM)

>  <Smiles input>
COc1ccc(CC2CCOCC2)c(Nc2nc3ccccc3nc2NS(=O)(=O)c2ccc(CN(C)C)cc2)c1

>  <Numeric readout>
30

$$$$
